# Test system: PRKD3;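 also: KINOMEscan kinase panel screen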
# Settings: concentration: 1 μM, replicates: in singlicate; n = 1
Readout Type: %Inh (%)

>  <Compound String>
Nc1ncnc2c1nc(-c1ccccc1)n2-c1ccccc1

>  <Readout Type>
%Inh

>  <Obs Value>
22

$$$$
>  <Compound String>
CN(c1ccc(NC(=O)Nc2cc(C(F)(F)F)ccc2F)cc1)c1ccnc(Nc2ccc(S(N)(=O)=O)cc2)n1

>  <Readout Type>
%Inh

>  <Obs Value>
0

$$$$
>  <Compound String>
COc1cccc(-c2ccc3c(NC(=O)C4CC4)n[nH]c3n2)c1

>  <Readout Type>
%Inh

>  <Obs Value>
0

$$$$
>  <Compound String>
CCS(=O)(=O)c1ccc(OC)c(Nc2nccc(-c3c(-c4cccc(NC(=O)c5c(F)cccc5F)c4)nn4ncccc34)n2)c1

>  <Readout Type>
%Inh

>  <Obs Value>
12

$$$$
>  <Compound String>
COc1cc2c(cc1OCCN1CCNCC1)ncc1c3ccc(C#N)cc3[nH]c21

>  <Readout Type>
%Inh

>  <Obs Value>
0

$$$$
>  <Compound String>
O=C(Nc1cccc(-c2nn3ccccc3c2-c2ccnc(Nc3cccc(F)c3)n2)c1)c1c(F)ccc(F)c1Cl

>  <Readout Type>
%Inh

>  <Obs Value>
39

$$$$
>  <Compound String>
O=C(Nc1cccc(-c2nn3ncccc3c2-c2ccnc(Nc3ccccc3)n2)c1)c1c(F)cccc1F

>  <Readout Type>
%Inh

>  <Obs Value>
47

$$$$
>  <Compound String>
COc1cc(Nc2nccc(-c3c(-c4cccc(NC(=O)c5c(F)cccc5F)c4)nn4ncccc34)n2)cc(OC)c1OC

>  <Readout Type>
%Inh

>  <Obs Value>
0

$$$$
